Numbers sourced from patent US4214001A.

- Tested on: bronchospasms induced by acetylcholine
- Assay summary: Bronchospasmolytic activity (method of Konzett et al.), acetylcholine-induced bronchospasm
- Type: in vivo
- Setup conditions: Cavia porcellus, iv; dose which produces a 50% reduction of the bronchospasm; anesthetized guinea pigs; acetylcholine 20 mgm/kg i.v.; read-out: ED50 after i.v. administration

>  <Compound>
CCOC(=O)Nc1ccc(C(O)CNC(C)(C)C)cc1C#N.Cl (stereo not shown) [C]

>  <ED50 (mg/kg)>
0.0235

$$$$
>  <Compound>
CCOC(=O)Nc1c(F)cc(C(O)CNC(C)(C)C)cc1Cl.Cl (stereo not shown) [A]

>  <ED50 (mg/kg)>
0.0307

$$$$
>  <Compound>
CCOC(=O)Nc1ccc(C(O)CNC(C)C)cc1C#N.Cl (stereo not shown) [D]

>  <ED50 (mg/kg)>
0.064

$$$$
>  <Compound>
CCOC(=O)Nc1c(F)cc(C(O)CNC(C)(C)C)cc1C#N.Cl (stereo not shown) [B]

>  <ED50 (mg/kg)>
0.0056

$$$$

---

- Tested on: bronchospasms induced by acetylcholine
- Assay summary: Bronchospasmolytic activity (method of Konzett et al.), acetylcholine-induced bronchospasm
- Assay type: in vivo
- Setup conditions: i.v.; anesthetized guinea pigs
Quantity measured: t/2 after i.v. administration (min)

>  <Compound>
CCOC(=O)Nc1c(F)cc(C(O)CNC(C)(C)C)cc1C#N.Cl (stereo not shown)

>  <Censoring operator>
=

>  <Observed>
70

$$$$
>  <Compound>
CCOC(=O)Nc1ccc(C(O)CNC(C)C)cc1C#N.Cl (stereo not shown)

>  <Censoring operator>
>

>  <Observed>
50

$$$$
>  <Compound>
CCOC(=O)Nc1ccc(C(O)CNC(C)(C)C)cc1C#N.Cl (stereo not shown)

>  <Censoring operator>
>

>  <Observed>
50

$$$$
>  <Compound>
CCOC(=O)Nc1c(F)cc(C(O)CNC(C)(C)C)cc1Cl.Cl (stereo not shown)

>  <Censoring operator>
=

>  <Observed>
60

$$$$

---

- Assay summary: Acute toxicity, intravenous, LD50
- Setup conditions: mouse, in vivo, i.v., mice, animals which died within 14 days

>  <Compound>
CCOC(=O)Nc1c(F)cc(C(O)CNC(C)(C)C)cc1Cl.Cl (stereo not shown)

>  <LD50 at 336 h / mg/kg>
70.2

$$$$
>  <Compound>
CCOC(=O)Nc1c(F)cc(C(O)CNC(C)(C)C)cc1C#N.Cl (stereo not shown)

>  <LD50 at 336 h / mg/kg>
97.5

$$$$
>  <Compound>
CCOC(=O)Nc1ccc(C(O)CNC(C)(C)C)cc1C#N.Cl (stereo not shown)

>  <LD50 at 336 h / mg/kg>
67.2

$$$$
>  <Compound>
CCOC(=O)Nc1ccc(C(O)CNC(C)C)cc1C#N.Cl (stereo not shown)

>  <LD50 at 336 h / mg/kg>
61.9

$$$$
